target_of_assay: T1, Sen1 HD T1623V (Saccharomyces cerevisiae, UniProt Q00416 1095-1905, T1623V)
T1 sequence: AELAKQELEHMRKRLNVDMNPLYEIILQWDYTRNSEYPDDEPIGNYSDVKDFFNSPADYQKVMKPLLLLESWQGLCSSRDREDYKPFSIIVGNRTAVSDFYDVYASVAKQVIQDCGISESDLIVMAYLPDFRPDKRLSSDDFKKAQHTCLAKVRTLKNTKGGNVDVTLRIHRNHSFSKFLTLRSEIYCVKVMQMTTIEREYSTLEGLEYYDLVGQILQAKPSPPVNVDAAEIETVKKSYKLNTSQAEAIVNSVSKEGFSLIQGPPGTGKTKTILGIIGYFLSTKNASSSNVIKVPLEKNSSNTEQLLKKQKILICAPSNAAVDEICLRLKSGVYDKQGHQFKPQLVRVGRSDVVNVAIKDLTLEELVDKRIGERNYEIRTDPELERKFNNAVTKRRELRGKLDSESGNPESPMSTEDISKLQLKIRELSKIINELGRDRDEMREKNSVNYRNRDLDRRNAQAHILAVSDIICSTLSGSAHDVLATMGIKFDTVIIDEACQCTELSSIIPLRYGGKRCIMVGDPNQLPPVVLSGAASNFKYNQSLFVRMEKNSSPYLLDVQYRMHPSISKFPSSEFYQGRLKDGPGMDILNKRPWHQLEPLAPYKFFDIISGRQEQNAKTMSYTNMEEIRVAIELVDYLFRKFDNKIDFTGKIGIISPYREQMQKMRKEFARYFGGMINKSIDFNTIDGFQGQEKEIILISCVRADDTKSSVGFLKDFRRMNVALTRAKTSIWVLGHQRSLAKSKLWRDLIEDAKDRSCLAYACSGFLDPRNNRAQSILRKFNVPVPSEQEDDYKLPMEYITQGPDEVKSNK
assay_explanation: EMSA
pKd: −log10 of the molar value.
measure: pKd

binder | measure | value
UUCAUUUCAGACCAGCACCCACUCACUACAACUCACGACCAGGC (ssRNA) [DL3508 (called 40-mer RNA; printed sequence is 44 nt)] | pKd | 8.09
